Assay: in vivo
Details: female, Balb/c, mouse, po, 40 mg/kg
Parameter: bioavailability (%)
Answer in %, number only, no unit symbol.

[ask] Return the recorded bioavailability value; entry: `CC(C)C[C@H](NC(=O)c1cc2ccccc2[nH]1)C(=O)N[C@H](C=O)C[C@@H]1CCNC1=O`
[reply] 8

====

Type: in vitro ADME
Conditions: extraction ratio, compound at 1 uM, monkey liver microsomes 0.5 mg/mL
Parameter: Liver Microsomal Stability (ER) Monkey
Write the number on its own, no unit after it.

Some solved cases for reference:
In [3]: df
Out[3]:
                              line_notation  recorded_measurement
0  CC(C)C[C@H](NC(=O)c1cc2ccccc2[nH]1)C(=O)N1C[C@H]2[C@@H]([C@H]1C(=O)N[C@H](C=O)C(C)C)C2(C)C                  0.48
1  CC(C)C[C@H](NC(=O)c1cc2ccccc2[nH]1)C(=O)N1C[C@H]2[C@@H]([C@H]1C(=O)N[C@@H](C#N)C[C@@H]1CCNC1=O)C2(C)C                  0.58
2  CC(C)(C)[C@H](NC(=O)C(F)(F)F)C(=O)N1C[C@H]2[C@@H]([C@H]1C(=O)N[C@H](C=O)C[C@@H]1CCNC1=O)C2(C)C                  0.13
3  Cc1cccc2[nH]c(C(=O)N[C@@H](CC(C)C)C(=O)N[C@H](C#N)C[C@@H]3CCNC3=O)cc12                  0.43
4  C[C@H](NC(=O)[C@@H]1[C@@H]2[C@H](CN1C(=O)[C@@H](NC(=O)C(F)(F)F)C(C)(C)C)C2(C)C)C(=O)CCl                  0.44
5  C[C@@H](C=O)NC(=O)[C@@H]1[C@@H]2[C@H](CN1C(=O)[C@@H](NC(=O)C(F)(F)F)C1CC1)C2(C)C                 −0.03
6  CC(C)C[C@H](NC(=O)c1cc2ccccc2[nH]1)C(=O)N[C@H](C=O)C[C@@H]1CCNC1=O                  0.14
7  Cc1cccc2[nH]c(C(=O)N[C@@H](CC(C)C)C(=O)N[C@@H](C[C@@H]3CCNC3=O)C(=O)CCl)cc12                  0.69

[ask] Specify reported Liver Microsomal Stability (ER) Monkey for the compound shown: `CC(C)C[C@H](NC(=O)c1cc2ccccc2[nH]1)C(=O)N1C[C@H]2[C@@H]([C@H]1C(=O)N[C@@H](C[C@@H]1CCNC1=O)C(=O)CCl)C2(C)C`
[reply] 0.92

[ask] Fill in reported Liver Microsomal Stability (ER) Monkey for this entry: `CC(C)[C@H](NC(=O)[C@@H]1[C@@H]2[C@H](CN1C(=O)[C@@H](NC(=O)C(F)(F)F)C(C)(C)C)C2(C)C)C(=O)CCl`
[reply] 0.57

[ask] # return recorded Liver Microsomal Stability (ER) Monkey for input `CC(C)C[C@H](NC(=O)c1cc2c(F)cccc2[nH]1)C(=O)N[C@@H](C[C@@H]1CCNC1=O)C(=O)CCl`
[reply] 0.72
